Assay: in vivo
Conditions: rabbit, po, 5 mg/kg
QUANTITY: dose excreted at 6 h (%)
# output: bare number, implied unit %

### Prompt So what's the measured dose excreted at 6 h for this one? O=C(O)c1cc(=O)c2c(OCC(O)COc3cccc4oc(C(=O)O)cc(=O)c34)cccc2o1
### Response 3.5

====

Settings: rabbit, in vivo, po, 5 mg/kg, 360 min
Structures can show the parent of a compound that is named as a salt.
QUANTITY: 0-6 Hr urinary recovery (%)
The reply should contain only the number, in %.

Some compounds with known 0-6 Hr urinary recovery results, for comparison:
CCOCCOC(=O)c1cc(=O)c2c(OCC(COc3cccc4oc(C(=O)OCCOCC)cc(=O)c34)OC(=O)[C@H](C)N)cccc2o1 [Example 12, hydrochloride]: 21.8
CCOC(=O)c1cc(=O)c2c(OCC(COc3cccc4oc(C(=O)OCC)cc(=O)c34)OC(=O)[C@@H](N)CCCCN)cccc2o1 [Example 1, dihydrochloride]: 32.6
CCOC(=O)c1cc(=O)c2c(OCC(COc3cccc4oc(C(=O)OCC)cc(=O)c34)OC(=O)[C@H](C)N)cccc2o1 [Example 4, hydrochloride]: 20.2
CCOC(=O)c1cc(=O)c2c(OCC(COc3cccc4oc(C(=O)OCC)cc(=O)c34)OC(=O)CNC(=O)[C@H](C)N)cccc2o1 [Example 7, hydrochloride]: 21.4

Then this compound:
### Prompt Name the recorded 0-6 Hr urinary recovery for CCOCCOC(=O)c1cc(=O)c2c(OCC(COc3cccc4oc(C(=O)OCCOCC)cc(=O)c34)OC(=O)[C@@H](N)CCCCN)cccc2o1 [Example 11, dihydrochloride] .
### Response 25.4
